Reported values of composite z-score for individual entries
target: Concanavalin-A (Canavalia ensiformis) (UniProt P02866); assay: ConA small-molecule binders, primary screen, artefact control for SMM control protein annotation, biochemical, small-molecule microarray, Alexa647 label, 635 nm (AID 1127); settings: ConA-A647 binding fluorescence, higher = more signal;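 also: z combines 667 nm emission intensity with signal-to-noise across three replicate slides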
Sequence (P02866 whole entry, looked up): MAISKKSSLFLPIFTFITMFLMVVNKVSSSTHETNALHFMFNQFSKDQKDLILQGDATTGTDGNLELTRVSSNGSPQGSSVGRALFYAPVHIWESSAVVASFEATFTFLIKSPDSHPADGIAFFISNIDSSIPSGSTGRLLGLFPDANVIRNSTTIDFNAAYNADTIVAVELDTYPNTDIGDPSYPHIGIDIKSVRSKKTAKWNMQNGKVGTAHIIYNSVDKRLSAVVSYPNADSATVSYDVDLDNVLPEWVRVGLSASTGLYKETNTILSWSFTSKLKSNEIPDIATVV

// below: answered compounds
INSERT INTO measurements (compound, target_entity, recorded_endpoint, result) VALUES
  ('COC(=O)[C@H](Cc1ccccc1)N[C@@H](/C=C/C1CC1)[C@H](O)Cc1ccccc1', 'Concanavalin-A (Canavalia ensiformis) (UniProt P02866)', 'composite z-score', 0.65),
  ('NCCCCCCNC(=O)[C@@H]1C[C@@H]2C(=O)NCC(=O)N2[C@@H]1c1ccc(O)cc1', 'Concanavalin-A (Canavalia ensiformis) (UniProt P02866)', 'composite z-score', 1.17),
  ('COC(=O)C(CC#Cc1ccc2c(c1)[C@]1(C(=O)N2)[C@H](C(=O)Nc2nc3ccccc3s2)[C@H]2C(=O)O[C@H](c3ccccc3)[C@H](c3ccccc3)N2[C@@H]1c1ccccc1OCCO)C(=O)OC', 'Concanavalin-A (Canavalia ensiformis) (UniProt P02866)', 'composite z-score', 1.14),
  ('C=CCOC(=O)[C@@H]1[C@H]2C(=O)O[C@H](c3ccccc3)[C@H](c3ccccc3)N2[C@H](c2ccc(OCCOC(=O)[C@@H]3C[C@@H]4C(=O)NCC(=O)N4[C@@H]3c3ccc(O)cc3)cc2)[C@@]12C(=O)Nc1ccc(I)cc12', 'Concanavalin-A (Canavalia ensiformis) (UniProt P02866)', 'composite z-score', 1.19),
  ('CC(C)=CCCC(C)=CC(O)C1C=CC2C(=O)N(C)C(=O)C2N1Nc1ccccc1 (stereo unspecified)', 'Concanavalin-A (Canavalia ensiformis) (UniProt P02866)', 'composite z-score', 1.18);

As a next step, examine the compound that follows.
The compound listed as `COC(=O)C(CC#Cc1ccc2c(c1)[C@]1(C(=O)N2)[C@H](C(=O)Nc2nc3ccccc3s2)[C@H]2C(=O)O[C@H](c3ccccc3)[C@H](c3ccccc3)N2[C@@H]1c1ccc(O)cc1)C(=O)OC` shows composite z-score equal to 1.04

====

composite z-score values by entry
test: small-molecule binders of probe aInhba, primary screen, biochemical, small-molecule microarray, 635/667 nm fluorescence (AID 1148); settings: higher = more signal;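 also: score merges 667nm spot fluorescence with signal-to-noise for antibody binding to printed compounds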
Lab note: record the figure alone, no unit after it.

Example entries and their recorded answers appear below.
INSERT INTO assay_data (compound, recorded_endpoint, measured_number) VALUES
  ('C=CCC(OC(C)=O)[C@@H]1[C@@H](N(Cc2ccc(-c3ccccc3)cc2)C(=O)Cc2ccc(OC)cc2)c2cc(OCCCO)ccc2N1C(=O)Cc1ccc2ccccc2c1 (some centres undefined)', 'composite z-score', -0.0221),
  ('[N-]=[N+]=Nc1ccccc1[C@@H]1OC(c2ccc(OCCCO)cc2)=N[C@]1(CCS(=O)(=O)c1ccccc1)C(N)=O', 'composite z-score', 0.207),
  ('CC(C)C[C@@H]1NC(=O)[C@@H]2C[C@H](C(=O)NCc3ccc(F)cc3)[C@H](c3cccc(OCCO)c3)N2C1=O', 'composite z-score', 0.286);

Please examine the following record next.
The compound identified as CN1C(=O)C2C=CC(C(O)c3ccccc3)N(N(c3ccccc3)c3ccccc3)C2C1=O (centres undefined) registered its composite z-score at 0.0051

====

assay: binders of probe aFGF10 on microarray, primary screen, stem cell growth factor project, biochemical, small-molecule microarray, fluorescence 635/667 (AID 1071); conditions: higher = more signal;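 also: score merges 667 nm spot intensity and signal to noise from triplicate slides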
// map composite z-score to label using bottom end (below 0.2), midrange (0.2 to below 0.4), top end (0.4 or more)

[ask] Categorize the following entry: `COCCOC(=O)N1C(=O)[C@@]2(c3cc(C#CCCO)ccc31)[C@H](C(N)=O)[C@H]1C(=O)O[C@H](c3ccccc3)[C@H](c3ccccc3)N1[C@@H]2c1ccc(O)cc1`
[reply] top end

[ask] Note: place this compound into its band. Item: `Cc1ccc(S[C@]2(C(=O)NC3CC3)CC(=O)N(Cc3ccccc3)[C@@H]2c2ccc(CO)cc2I)cc1`
[reply] midrange

====

system: Plasmodium falciparum Sir2 (PF13_0152, Sir2A); experiment: pfSir2 binders on small-molecule microarrays, primary screen, biochemical, small-molecule microarray, 635 nm fluorescence (AID 1098); conditions: small-molecule microarray binding, fluorescence 635 nm; higher = more signal;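 also: score merges spot fluorescence intensity with its signal-to-noise ratio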
RECORDED ENDPOINT: composite z-score
The reply should be a number, written without any unit.

Lab note: `COc1cc2c(cc1OC)CN(C(=O)[C@@H]1[C@H]3C(=O)O[C@H](c4ccccc4)[C@H](c4ccccc4)N3[C@H](c3ccccc3OCCO)[C@@]13C(=O)Nc1ccc(C#CCCO)cc13)CC2` gave composite z-score of 1.53

Documented composite z-score of CC1CC/C=C\[C@H]2OC34C=CCN(C(C)(C)C)C(=O)[C@H]3N(CCO)C(=O)[C@@H]4C2C(=O)O1 (some centres undefined) : -0.103

Per the record, O[C@@H](Cc1ccccc1)[C@H]1C2C=CCCC=C2CN1Cc1cccc(Cl)c1 (some centres undefined) has composite z-score of 0.77

For record `CCOC(=O)C1=C[C@@H](C(C)(C)C)N(S(=O)(=O)c2ccc(C)cc2)[C@H]1c1ccc(F)cc1` the listed composite z-score is 0.592

====

A collection of compounds and their measured z-score
experiment: basal MM1S mitochondrial membrane potential changes, profiling panel, cell-based, JC-1 fluorescence, 24 h, 100 nL compound (AID 1170); conditions: higher = more signal; also: test concentration not given here

Some solved cases for reference:
INSERT INTO results (test_smiles, result) VALUES
  ('COc1ccc(CCNC(=O)[C@@H]2c3ccccc3C(=O)N(Cc3ccccc3Cl)[C@H]2c2ccc(CO)cc2)cc1', 1.42),
  ('NCCCCCNC(=O)[C@@H]1C[C@@H]2C(=O)N[C@@H](Cc3ccccc3)C(=O)N2[C@@H]1c1ccc(O)cc1', 0.397),
  ('CCOC(=O)C[C@H]1[C@H](OC(=O)c2cc3ccccc3oc2=O)[C@@H](NC(=O)c2ccccc2)c2cc(OCCCO)ccc2N1C(=O)c1ccc2ccccc2n1', -0.0496),
  ('NC(=O)NCC#Cc1ccc2c(c1)[C@]1(C(=O)N2)[C@H](c2ccccc2OCCO)N2[C@H](c3ccccc3)[C@H](c3ccccc3)OC(=O)[C@H]2[C@@H]1C(=O)Nc1nc2ccccc2s1', -1.73),
  ('O=C1c2ccccc2[C@](Cc2ccccc2I)(C(=O)NCCN2CCOCC2)[C@H](c2ccc(CO)cc2)N1C1CCCCC1', -0.96),
  ('COc1cc2c(cc1OC)CN(C(=O)[C@H]1[C@@H]3C(=O)O[C@@H](c4ccccc4)[C@@H](c4ccccc4)N3[C@@H](c3ccc(O)cc3)[C@]13C(=O)Nc1ccccc13)CC2', -0.594);

Moving on to another compound below.
Please fill in: z-score reported for `COCCOC(=O)N1C(=O)[C@@]2(c3ccccc31)[C@H](C(=O)N1CCc3cc(OC)c(OC)cc3C1)[C@H]1C(=O)O[C@H](c3ccccc3)[C@H](c3ccccc3)N1[C@@H]2c1ccc(OCCO)cc1` = -0.483

====

system: Lefty1; experiment: Lefty1 binders on small-molecule microarrays, primary screen, biochemical, small-molecule microarray, 635/667 nm fluorescence (AID 1139); conditions: small-molecule microarray binding, fluorescence 635/667; higher = more signal
RECORDED ENDPOINT: composite z-score

INSERT INTO measurements (compound, result) VALUES
  ('COc1cc2c(cc1O)C(c1cccs1)N(C)CC2 (stereo not given)', -0.574);

# composite z-score (compound: `CN(C)CCCCCCNC(=O)[C@@H]1C[C@@H]2C(=O)N[C@@H](Cc3ccccc3)C(=O)N2[C@@H]1c1ccc(O)cc1` ) is 1.67

Query `CC(=O)NCCCC[C@@H]1NC(=O)[C@@H]2C[C@H](C(=O)NCCCCCNC(=O)CS)[C@H](c3cccc(OCCO)c3)N2C1=O` yields composite z-score of 1.1

Lookup result for CCN(CC)c1ccc(N2CC=CC34O[C@@H]5C=CCCOC(=O)C5[C@H]3C(=O)N(CCCCCCO)[C@@H]4C2=O)cc1 (stereo not given in full) ; measured composite z-score: 0.0079

Memo: `CCCC[C@@H]1C[C@H]1[C@@H](NC(=O)c1ccccc1)c1ccc(C(=O)OC)cc1` , reported composite z-score: -0.684

Reported composite z-score of CC(C)C(CO)N1C(=O)[C@@H]2C3C(=O)OCCC/C=C\[C@H]3OC23C=CCN(CCN2CCOCC2)C(=O)[C@@H]13 (stereo not given in full) : 0.579

CC(C)C[C@@H]1NC(=O)[C@H](C(C)C)NC(=O)[C@@]23C(=O)N[C@@H](Cc4ccccc4)C2[C@H](C)[C@@]2(C)O[C@H]2C3/C=C/CC/C=C/CNC1=O (stereo not given in full) yielded composite z-score of 1.15

Form field composite z-score, entry `CC(C)NC(=O)[C@@]1(c2ccc([N+](=O)[O-])cc2)CC(=O)N(C2CCCCC2)[C@@H]1c1ccc(CO)cc1I` : -0.491
